Listed next: entries and their corresponding IC50.
- assayed_system: human T877A mutant AR (Homo sapiens, UniProt P10275, T878A)
- Sequence (P10275 whole entry T878A): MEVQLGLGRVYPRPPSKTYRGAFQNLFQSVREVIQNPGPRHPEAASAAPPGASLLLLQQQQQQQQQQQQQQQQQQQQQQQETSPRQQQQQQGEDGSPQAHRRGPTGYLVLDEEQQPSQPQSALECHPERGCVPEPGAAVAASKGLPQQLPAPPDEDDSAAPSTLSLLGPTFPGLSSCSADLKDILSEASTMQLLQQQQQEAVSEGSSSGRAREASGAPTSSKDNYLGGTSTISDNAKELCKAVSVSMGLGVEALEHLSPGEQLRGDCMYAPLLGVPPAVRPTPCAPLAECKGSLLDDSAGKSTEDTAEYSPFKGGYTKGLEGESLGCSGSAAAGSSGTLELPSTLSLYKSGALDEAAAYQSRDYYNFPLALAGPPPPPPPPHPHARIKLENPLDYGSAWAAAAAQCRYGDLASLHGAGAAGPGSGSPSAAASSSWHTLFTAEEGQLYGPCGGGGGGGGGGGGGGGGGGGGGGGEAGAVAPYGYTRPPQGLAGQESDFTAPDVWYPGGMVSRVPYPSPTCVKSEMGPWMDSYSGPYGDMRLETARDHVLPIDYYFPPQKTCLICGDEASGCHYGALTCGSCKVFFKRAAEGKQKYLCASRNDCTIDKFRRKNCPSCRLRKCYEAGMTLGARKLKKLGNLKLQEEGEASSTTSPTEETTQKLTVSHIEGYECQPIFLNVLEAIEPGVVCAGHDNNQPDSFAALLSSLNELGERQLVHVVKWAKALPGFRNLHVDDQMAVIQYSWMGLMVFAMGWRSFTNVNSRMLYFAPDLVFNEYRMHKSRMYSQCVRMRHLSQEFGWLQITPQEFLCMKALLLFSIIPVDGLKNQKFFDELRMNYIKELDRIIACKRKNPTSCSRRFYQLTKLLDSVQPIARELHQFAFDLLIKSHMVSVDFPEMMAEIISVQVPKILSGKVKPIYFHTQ
- assay: Inhibitory action against transcriptional activation of mutant AR (luciferase reporter, CHO-K1 cells, DHT 0.3 nM)
- recorded_conditions: CHO-K1 cells stably expressing T877A mutant AR, with DHT 0.3 nM, >1000 nM means no inhibitory action observed, read-out: IC50, inhibition of transcriptional activation, T877A
Answer with a number only, understood to be in µM.

Reference set (2 entries):
[[record]]
compound = "CC(C)Oc1cc(N2C[C@@H](C)N(C(=O)Nc3cnc(C4CC4)nc3)C[C@@H]2C)ccc1C#N [Ref 1-1, reference compound]"
result_value = 0.35

[[record]]
compound = "C[C@@H]1CN(c2ccc(C#N)c(Cl)c2)[C@@H](C)CN1C(=O)Nc1cnc2ccccc2n1 [Ref 1-3, reference compound]"
result_value = 0.68


Measured on human T877A mutant AR (Homo sapiens, UniProt P10275, T878A), COc1ncc(NC(=O)N2C[C@H](C)N(c3ccc(C#N)c(Br)c3)C[C@H]2C)cn1 [Ex 11] has a documented IC50 of 0.023

Numbers sourced from patent US20130197009A1.
